The values you see were collected from PubChem BioAssay AID2613.

Target: Lysosomal acid glucosylceramidase (Homo sapiens) (UniProt P04062)
Sequence (P04062 whole entry N409S): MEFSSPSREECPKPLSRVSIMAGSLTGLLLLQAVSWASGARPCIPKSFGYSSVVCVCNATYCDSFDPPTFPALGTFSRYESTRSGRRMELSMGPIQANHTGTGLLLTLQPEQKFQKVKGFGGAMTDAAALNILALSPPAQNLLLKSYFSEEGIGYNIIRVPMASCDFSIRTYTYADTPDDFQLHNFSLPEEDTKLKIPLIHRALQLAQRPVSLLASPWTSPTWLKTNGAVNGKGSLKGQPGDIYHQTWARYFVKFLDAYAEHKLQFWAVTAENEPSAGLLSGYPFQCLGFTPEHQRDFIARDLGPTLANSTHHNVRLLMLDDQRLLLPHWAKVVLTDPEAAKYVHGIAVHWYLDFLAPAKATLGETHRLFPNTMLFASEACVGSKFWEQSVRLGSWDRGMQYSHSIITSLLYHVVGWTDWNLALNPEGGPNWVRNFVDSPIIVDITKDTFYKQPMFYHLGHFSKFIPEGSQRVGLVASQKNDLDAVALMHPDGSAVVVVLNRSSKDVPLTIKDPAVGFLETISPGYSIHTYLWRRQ
Assay: qHTS Assay for Inhibitors and Activators of N370S glucocerebrosidase as a Potential Chaperone Treatment of Gaucher Disease: Activity in N370S Spleen Homogenate Using a Red Fluorescent Substrate
Settings: red fluorogenic substrate; series mostly up to 49.6 µM
Records with an inconclusive call do not appear. Calls of active or inactive are those of the source. Calls follow the shape of the dose curve; as a rule, active = well fitted inhibition curve with a large enough effect; inconclusive = small, poorly fitted or top-dose-only effect; inactive = flat fitted curve, though single readings scatter.
Parameter call: string, one of active, inactive

c1ccc2c(NCC3CCCO3)nc(N3CCOCC3)nc2c1 (stereo unspecified) :: inactive
Cc1ccc(C)c(N2CCN(C(=O)CCC(=O)Nc3ccc4nc(N5CCOCC5)cc(C)c4c3)CC2)c1 :: active
COc1ccccc1OCC(=O)Nc1oc(-c2ccccc2)c(-c2ccccc2)c1C#N :: inactive
O=C(CSc1nccc(-c2cccs2)n1)Nc1cccc(Cl)c1 :: inactive
O=c1cc(N2CCCCC2)c(-c2ccccc2)nn1Cc1c(Cl)cccc1Cl :: inactive

Prompt: Test call for this compound, please: `CSc1ccc(NC(=O)Nc2cc(C)ccn2)cc1`
Completion: inactive

Prompt: How about `CC(C)(C)C(=O)OCCNc1nc(-c2ccccc2)nc2ccccc12` ?
Completion: active

Prompt: How about `CCCCNC(=O)c1ccc(NS(=O)(=O)c2ccccc2)cc1` ?
Completion: inactive

Prompt: How about `Cc1cc(C)n2ncc(C(=O)Nc3cccc(O)c3)c2n1` ?
Completion: inactive

Prompt: How about Cc1cc(N2CCC(C)CC2)nc2ccc(NC(=O)C3CCC(C)CC3)cc12 (stereo unspecified) ?
Completion: active

Prompt: How about `COc1cccc(NC(=S)N(CCCN2CCOCC2)Cc2cn(C)c3ccccc23)c1` ?
Completion: active
